Tested on: Escherichia coli TOP10
Experiment: shrunken log2 fold change of peptide-encoding DNA abundance (4.5 h post-induction vs induction); higher = less antimicrobial activity (less host growth inhibition)
Conditions: time post-induction: 4.5 h; library: site-saturation at positions 5, 18, 19, 20
measuredAttribute: shrunken log2 fold change
Give the value as a plain number.

RRIRIRPPRLPRPRPRPNILPRP -0.557
RRIRRRPPRLPRPRPRPYYPPRP -0.468
RRIRNRPPRLPRPRPRPRCDPRP -0.203
RRIRIRPPRLPRPRPRPHPDPRP -0.45
RRIRNRPPRLPRPRPRPMFHPRP -0.678
RRIRWRPPRLPRPRPRPMAYPRP -0.0846
RRIRPRPPRLPRPRPRPWVEPRP 0.17

Moving on to the next sequence.
Task item: Tell me the measured shrunken log2 fold change of `RRIRTRPPRLPRPRPRPWFCPRP` , please.
Reply: -0.392

====

# Lookup of reported shrunken log2 fold change keyed by entry
Tested on: Escherichia coli TOP10
Assay: shrunken log2 fold change of peptide-encoding DNA abundance (4.5 h post-induction vs induction); higher = less antimicrobial activity (less host growth inhibition)
Details: time post-induction: 4.5 h; library: site-saturation at positions 5, 18, 19, 20

RRIRVRPPRLPRPRPRPKKYPRP -0.411
RRIRQRPPRLPRPRPRPGTIPRP -0.259
RRIRIRPPRLPRPRPRPHSWPRP -0.327

Task item: Tell me the measured shrunken log2 fold change of `RRIRQRPPRLPRPRPRPGGEPRP` , please.
Reply: 0.218

Task item: Tell me the measured shrunken log2 fold change of `RRIRPRPPRLPRPRPRPIDIPRP` , please.
Reply: -0.252

Task item: Tell me the measured shrunken log2 fold change of `RRIRVRPPRLPRPRPRPSCDPRP` , please.
Reply: -0.231

Task item: Tell me the measured shrunken log2 fold change of `RRIRERPPRLPRPRPRPPASPRP` , please.
Reply: 0.127

Task item: Tell me the measured shrunken log2 fold change of `RRIRQRPPRLPRPRPRPQRMPRP` , please.
Reply: -0.0094

====

# Lookup of reported shrunken log2 fold change keyed by entry
System: Escherichia coli TOP10
Assay: shrunken log2 fold change of peptide-encoding DNA abundance (4.5 h post-induction vs induction); higher = less antimicrobial activity (less host growth inhibition)
Conditions: time post-induction: 4.5 h; library: site-saturation at positions 5, 18, 19, 20
Give the value as a plain number.

RRIRVRPPRLPRPRPRPHKYPRP -0.725
RRIRVRPPRLPRPRPRPGCDPRP 0.952
RRIRKRPPRLPRPRPRPAYKPRP 0.354
RRIRRRPPRLPRPRPRPSRYPRP 1.35

Task item: Tell me the measured shrunken log2 fold change of `RRIRARPPRLPRPRPRPEQTPRP` , please.
Reply: 1.18

Task item: Tell me the measured shrunken log2 fold change of `RRIRKRPPRLPRPRPRPLKTPRP` , please.
Reply: -0.151

Task item: Tell me the measured shrunken log2 fold change of `RRIRLRPPRLPRPRPRPPYTPRP` , please.
Reply: -0.674

Task item: Tell me the measured shrunken log2 fold change of `RRIRKRPPRLPRPRPRPLAQPRP` , please.
Reply: 0.801

Task item: Tell me the measured shrunken log2 fold change of `RRIRCRPPRLPRPRPRPRCIPRP` , please.
Reply: -0.29

Task item: Tell me the measured shrunken log2 fold change of `RRIRERPPRLPRPRPRPCHSPRP` , please.
Reply: -0.0339

Task item: Tell me the measured shrunken log2 fold change of `RRIRLRPPRLPRPRPRPMIYPRP` , please.
Reply: -0.0701

====

# Lookup of reported shrunken log2 fold change keyed by entry
System: Escherichia coli TOP10
Assay: shrunken log2 fold change of peptide-encoding DNA abundance (4.5 h post-induction vs induction); higher = less antimicrobial activity (less host growth inhibition)
Conditions: time post-induction: 4.5 h; library: site-saturation at positions 5, 18, 19, 20
Give the value as a plain number.

RRIRQRPPRLPRPRPRPFFGPRP 6.44e-05
RRIRMRPPRLPRPRPRPGVDPRP 1.68
RRIRFRPPRLPRPRPRPANMPRP 0.321
RRIRVRPPRLPRPRPRPVWTPRP 0.155
RRIRERPPRLPRPRPRPYVQPRP -0.0184
RRIRCRPPRLPRPRPRPWQEPRP -0.153
RRIRHRPPRLPRPRPRPTPCPRP 0.00473
RRIRTRPPRLPRPRPRPPKGPRP 0.107
RRIRYRPPRLPRPRPRPIMEPRP -0.0134
RRIRGRPPRLPRPRPRPFACPRP 0.39

Task item: Tell me the measured shrunken log2 fold change of `RRIRTRPPRLPRPRPRPGMFPRP` , please.
Reply: -0.397

Task item: Tell me the measured shrunken log2 fold change of `RRIRTRPPRLPRPRPRPTPPPRP` , please.
Reply: 0.589

Task item: Tell me the measured shrunken log2 fold change of `RRIRRRPPRLPRPRPRPSKVPRP` , please.
Reply: -0.0758

Task item: Tell me the measured shrunken log2 fold change of `RRIRHRPPRLPRPRPRPIELPRP` , please.
Reply: -0.0301

Task item: Tell me the measured shrunken log2 fold change of `RRIRLRPPRLPRPRPRPNKMPRP` , please.
Reply: -0.158

====

# Lookup of reported shrunken log2 fold change keyed by entry
Tested on: Escherichia coli TOP10
Test: shrunken log2 fold change of peptide-encoding DNA abundance (4.5 h post-induction vs induction); higher = less antimicrobial activity (less host growth inhibition)
Conditions: time post-induction: 4.5 h; library: site-saturation at positions 5, 18, 19, 20
Give the value as a plain number.

RRIRIRPPRLPRPRPRPQYAPRP 0.0303
RRIRARPPRLPRPRPRPTDRPRP 0.0653
RRIRGRPPRLPRPRPRPWFGPRP -0.05
RRIRTRPPRLPRPRPRPDHGPRP -0.0102
RRIRMRPPRLPRPRPRPGRKPRP 1.32
RRIRLRPPRLPRPRPRPFGIPRP -0.255

Task item: Tell me the measured shrunken log2 fold change of `RRIRPRPPRLPRPRPRPCMEPRP` , please.
Reply: -0.106

Task item: Tell me the measured shrunken log2 fold change of `RRIRNRPPRLPRPRPRPAAYPRP` , please.
Reply: -0.0872

Task item: Tell me the measured shrunken log2 fold change of `RRIRQRPPRLPRPRPRPQPKPRP` , please.
Reply: 0.0658

Task item: Tell me the measured shrunken log2 fold change of `RRIRARPPRLPRPRPRPTMWPRP` , please.
Reply: 0.516

Task item: Tell me the measured shrunken log2 fold change of `RRIRCRPPRLPRPRPRPNKNPRP` , please.
Reply: -0.344

Task item: Tell me the measured shrunken log2 fold change of `RRIRHRPPRLPRPRPRPTIGPRP` , please.
Reply: -0.0227

====

Test system: Escherichia coli TOP10;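 also: peptides expressed intracellularly from a pBAD plasmid library in pooled LB shake-flask culture, induced with 0.3% L-arabinose, DNA abundance read by NGS, three biological replicates, DESeq2 with apeglm shrinkage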
Test: shrunken log2 fold change of peptide-encoding DNA abundance (4.5 h post-induction vs induction); higher = less antimicrobial activity (less host growth inhibition)
Conditions: time post-induction: 4.5 h; library: site-saturation at positions 5, 18, 19, 20
# Lookup of reported shrunken log2 fold change keyed by entry

Solved entries:
RRIRSRPPRLPRPRPRPHSQPRP 0.0681
RRIRRRPPRLPRPRPRPTKDPRP 0.209
RRIRKRPPRLPRPRPRPSQHPRP 0.109
RRIRMRPPRLPRPRPRPQAVPRP 0.442
RRIRRRPPRLPRPRPRPFQKPRP -0.0282

Task item: Tell me the measured shrunken log2 fold change of `RRIRSRPPRLPRPRPRPNSKPRP` , please.
Reply: -0.382

Task item: Tell me the measured shrunken log2 fold change of `RRIRHRPPRLPRPRPRPYLVPRP` , please.
Reply: -0.162

Task item: Tell me the measured shrunken log2 fold change of `RRIRLRPPRLPRPRPRPLRPPRP` , please.
Reply: 0.525

Task item: Tell me the measured shrunken log2 fold change of `RRIRYRPPRLPRPRPRPDAVPRP` , please.
Reply: -0.365

Task item: Tell me the measured shrunken log2 fold change of `RRIRRRPPRLPRPRPRPCNAPRP` , please.
Reply: -0.105

Task item: Tell me the measured shrunken log2 fold change of `RRIRMRPPRLPRPRPRPRTFPRP` , please.
Reply: 0.541

Task item: Tell me the measured shrunken log2 fold change of `RRIRIRPPRLPRPRPRPVWEPRP` , please.
Reply: 0.108

Task item: Tell me the measured shrunken log2 fold change of `RRIRFRPPRLPRPRPRPFSHPRP` , please.
Reply: -1.36

Task item: Tell me the measured shrunken log2 fold change of `RRIRKRPPRLPRPRPRPPREPRP` , please.
Reply: 0.689

Task item: Tell me the measured shrunken log2 fold change of `RRIRWRPPRLPRPRPRPYSFPRP` , please.
Reply: -0.107

Source: the supplement of paper PMC9112550
